- MEASURED_ON: UniProt:Q9YQ12
- Sequence (Q9YQ12 whole entry): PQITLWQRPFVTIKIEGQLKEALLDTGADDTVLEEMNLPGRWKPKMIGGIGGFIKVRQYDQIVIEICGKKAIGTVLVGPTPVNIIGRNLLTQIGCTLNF
- EXPERIMENT_SUMMARY: Inhibition of wild type HIV1 protease by FRET assay
ASSAY_ENDPOINT: pKi
Just the number, please; pKi means minus log10 of the concentration in mol/L.

The cases that follow already have their pKi on record.
[
  {
    "SAMPLE_SMILES": "CCCCCN(C[C@@H](O)[C@H](Cc1ccccc1)NC(=O)O[C@H](C)CCC(C)=O)S(=O)(=O)c1ccc2ncsc2c1",
    "pKi": 8.47
  },
  {
    "SAMPLE_SMILES": "CCCCCN(C[C@@H](O)[C@H](Cc1ccccc1)NC(=O)OC[C@@H]1CCC(=O)N1)S(=O)(=O)c1ccc(OC)cc1",
    "pKi": 9.20
  },
  {
    "SAMPLE_SMILES": "CCCCCN(C[C@@H](O)[C@H](Cc1ccccc1)NC(=O)OCCN1CCNC1=O)S(=O)(=O)c1ccc(OC)cc1",
    "pKi": 9.40
  },
  {
    "SAMPLE_SMILES": "CCCCCN(C[C@@H](O)[C@H](Cc1ccccc1)NC(=O)OCCNC(=O)C(F)(F)F)S(=O)(=O)c1ccc(OC)cc1",
    "pKi": 7.50
  },
  {
    "SAMPLE_SMILES": "CCCCCN(C[C@@H](O)[C@H](Cc1ccccc1)NC(=O)O[C@H](C)CCC(C)=O)S(=O)(=O)c1ccc(OC)cc1",
    "pKi": 8.16
  }
]

Query block: Name the recorded pKi for CC[C@H](C)CN(C[C@@H](O)[C@H](Cc1ccccc1)NC(=O)OCCNC(=O)OC(C)(C)C)S(=O)(=O)c1ccc(OC)cc1 .
Result block: 8.70

Query block: Would you kindly repeat that for CCCCCN(C[C@@H](O)[C@H](Cc1ccccc1)NC(=O)OCCN1CCOC1=O)S(=O)(=O)c1ccc(OC)cc1 ?
Result block: 11.10

----------
- MEASURED_ON: Human immunodeficiency virus type 1 protease (Human immunodeficiency virus 1, UniProt Q72874, A71V/I50V)
- EXPERIMENT_SUMMARY: Inhibition of HIV1 protease I50V, A71V mutant by FRET assay
ASSAY_ENDPOINT: pKi
Notebook: values listed as pKi are -log10 of the concentration (mol/L).

Query block: For CCCCCN(C[C@@H](O)[C@H](Cc1ccccc1)NC(=O)O[C@H](C)CC(=O)OC)S(=O)(=O)c1ccc2ncsc2c1 , what is its reported pKi?
Result block: 6.92

----------
- Test system: Human immunodeficiency virus 1
- EXPERIMENT_SUMMARY: Antiviral activity against wild type HIV1 clade A isolated form HIV1 patient infected in HEK293 cells assessed as reduction in viral replication incubated for 48 hrs by luciferase reporter based assay
- Format: functional, organism-based
- MEASUREMENT_SETUP: Human immunodeficiency virus 1, clade A, HEK293, 48 h
Reported pEC50 values for the following compounds.
Notebook: values listed as pEC50 are -log10 of the concentration (mol/L).

Some compounds with known pEC50 results, for comparison:
[
  {
    "SAMPLE_SMILES": "CC[C@H](C)CN(C[C@@H](O)[C@H](Cc1ccccc1)NC(=O)OCCN1CCOC1=O)S(=O)(=O)c1ccc2ncsc2c1",
    "MEASURED_ON": "Human immunodeficiency virus 1",
    "MEASURED_VALUE": 7.67
  },
  {
    "SAMPLE_SMILES": "CC[C@H](C)CN(C[C@@H](O)[C@H](Cc1ccccc1)NC(=O)OCCNC(=O)C(Cl)Cl)S(=O)(=O)c1ccc2ncsc2c1",
    "MEASURED_ON": "Human immunodeficiency virus 1",
    "MEASURED_VALUE": 7.19
  },
  {
    "SAMPLE_SMILES": "CC[C@H](C)CN(C[C@@H](O)[C@H](Cc1ccccc1)NC(=O)OC[C@@H]1CCC(=O)N1)S(=O)(=O)c1ccc2ncsc2c1",
    "MEASURED_ON": "Human immunodeficiency virus 1",
    "MEASURED_VALUE": 7.60
  },
  {
    "SAMPLE_SMILES": "CCCCCN(C[C@@H](O)[C@H](Cc1ccccc1)NC(=O)OCCN1CCOC1=O)S(=O)(=O)c1ccc2ncsc2c1",
    "MEASURED_ON": "Human immunodeficiency virus 1",
    "MEASURED_VALUE": 7.02
  }
]

Query block: Give its pEC50 value. Item: CC[C@H](C)CN(C[C@@H](O)[C@H](Cc1ccccc1)NC(=O)OC[C@@H]1CCC(=O)N1)S(=O)(=O)c1ccc(OC)cc1
Result block: 7.19

Query block: Thanks! And CC[C@H](C)CN(C[C@@H](O)[C@H](Cc1ccccc1)NC(=O)OCCNC(=O)OC(C)(C)C)S(=O)(=O)c1ccc2ncsc2c1 ?
Result block: 6.64
